protocol.notes: Binding affinity to 2AP-labelled duplex RNA (unknown origin) by fluorescence spectrophotometric analysis
In this section we review reported EC50 values for a set of compounds.

Field: example entries. Status: answers known.
[[record]]
smiles_string = "NCCCC[C@H](N)C(=O)N[C@@H]1C[C@H](N)[C@@]2(CC[C@H](O)[C@H](O)CO2)[C@H](O)[C@H]1O"
value_reported = "12 µM"

[[record]]
smiles_string = "NCC[C@H](O)C(=O)N[C@@H]1C[C@H](N)[C@@]2(C[C@H](O)[C@H](O)CO2)[C@H](O)[C@H]1O"
value_reported = "12.6 µM"

[[record]]
smiles_string = "N[C@@H]1C[C@H](N)[C@@]2(CC[C@@H](CNC(=O)[C@@H](N)Cc3cnc[nH]3)O2)[C@H](O)[C@H]1O"
value_reported = "1.6 µM"


--- query ---
// query Indicate its recorded EC50; the compound in question is NCC[C@H](O)CN[C@@H]1C[C@H](N)[C@@]2(CC[C@H](O)[C@H](O)CO2)[C@H](O)[C@H]1O
// result 0.93 µM
